# test: Aqueous solubility determination by UV spectrophotometer
# Format: physicochemical
# testParameters: water, thermodynamic from solid, saturated solution concentration
reportedProperty: solubility (mg/mL)

>>> df
                                   compound  reportedproperty  readoutvalue
0  COc1cc(/C=C/C(=O)CC(=O)/C=C/c2c(OC)cc(O)cc2OC)cc(CN(C)C)c1O [Compound 14a]        solubility           126
1  COc1cc(/C=C/C(=O)CC(=O)/C=C/c2ccc(OC)c(OC)c2OC)cc(CN(C)C)c1O [Compound 6a]        solubility           112
2  COc1cc(/C=C/C(=O)CC(=O)/C=C/c2c(C)cc(O)cc2C)cc(CN(C)C)c1O [Compound 13a]        solubility           285
3  COc1cc(/C=C/C(=O)CC(=O)/C=C/c2ccc(O)c(Cl)c2)cc(CN(C)C)c1O [Compound 7a]        solubility           258

A. COc1cc(/C=C/C(=O)CC(=O)/C=C/c2cc(CN(C)C)c(O)c(OC)c2)ccc1O [Compound 15a]
B. COc1cc(O)ccc1/C=C/C(=O)CC(=O)/C=C/c1cc(CN(C)C)c(O)c(OC)c1 [Compound 9a]
Which gives the smaller solubility number: A or B ? Response format: the label of the selected entry.
B
(B: 167 mg/mL, A: 284 mg/mL)

1. COc1cc(/C=C/C(=O)CC(=O)/C=C/c2cc(C)c(O)cc2C)cc(CN(C)C)c1O [Compound 12a]
2. COc1cc(/C=C/C(=O)CC(=O)/C=C/c2cc(C)c(O)c(C)c2)cc(CN(C)C)c1O [Compound 8a]
3. COc1cc(/C=C/C(=O)CC(=O)/C=C/c2ccc(O)cc2F)cc(CN(C)C)c1O [Compound 4a]
Hello, I need these entries ordered by solubility, highest reading first. Thanks! Returns: the labels arranged in the requested order.
3, 1, 2
(3: 314 mg/mL, 1: 206 mg/mL, 2: 118 mg/mL)

I. CCOc1cc(/C=C/C(=O)CC(=O)/C=C/c2cc(CN(C)C)c(O)c(OC)c2)ccc1O [Compound 1a]
II. COc1ccc(/C=C/C(=O)CC(=O)/C=C/c2cc(CN(C)C)c(O)c(OC)c2)cc1O [Compound 11a]
Which numeric solubility is bigger, that of I or that of II ? Refer to your chosen entry by its label in the reply.
I

###

# Tested on: PC 12 cell lines
# test: Radiation protection in vitro (CCK-8)
# Assay type: cell-based, rat
# testParameters: Dose 5 μM; radiation 8.0 Gy, PC 12; radiation group 50.22 ± 1.08; in % (unit assumed)
Cell viability values, listed per item
Could you respond with only the numeric value?

>>> print(df.to_string())
                                   compound  readoutvalue
0  COc1cc(O)ccc1/C=C/C(=O)CC(=O)/C=C/c1cc(CN(C)C)c(O)c(OC)c1         56.32
1  COc1ccc(/C=C/C(=O)CC(=O)/C=C/c2cc(CN(C)C)c(O)c(OC)c2)cc1O [Compound 11a]         60.93
2  COc1cc(/C=C/C(=O)CC(=O)/C=C/c2ccc(O)cc2F)cc(CN(C)C)c1O         49.46
3  COc1cc(/C=C/C(=O)CC(=O)/C=C/c2cc(C)c(O)cc2C)cc(CN(C)C)c1O [Compound 12a]         59.04
4  COc1cc(/C=C/C(=O)CC(=O)/C=C/c2ccc(OC)c(OC)c2OC)cc(CN(C)C)c1O         58.25
5  COc1cc(/C=C/C(=O)CC(=O)/C=C/c2cc(C)c(O)c(C)c2)cc(CN(C)C)c1O         53.58
6  COc1cc(/C=C/C(=O)CC(=O)/C=C/c2c(C)cc(O)cc2C)cc(CN(C)C)c1O [Compound 13a]         66.55

Consider the additional compound presented here.
Query (compound): COc1ccc(/C=C/C(=O)CC(=O)/C=C/c2cc(CN(C)C)c(O)c(OC)c2)cc1OC ; field requested: Cell viability
58.70

###

Documented viability at 20 µM across a set of molecules
# Test system: PC 12 cell lines
# test: Radiation protection in vitro (CCK-8)
# Format: cell-based, rat
# testParameters: Rattus norvegicus, PC-12, Dose 20 μM; radiation 8.0 Gy, PC 12; radiation group 50.22 ± 1.08
Write down the numeric answer in % and omit the unit.

Here's what some known entries look like.
>>> print(df.to_string())
                               linenotation    reportedproperty  readoutvalue
0  COc1ccc(/C=C/C(=O)CC(=O)/C=C/c2cc(CN(C)C)c(O)c(OC)c2)cc1OC  viability at 20 µM           105
1  COc1cc(/C=C/C(=O)CC(=O)/C=C/c2c(OC)cc(O)cc2OC)cc(CN(C)C)c1O  viability at 20 µM          63.5
2  COc1cc(/C=C/C(=O)CC(=O)/C=C/c2ccc(OC)c(OC)c2OC)cc(CN(C)C)c1O  viability at 20 µM          84.9
3  COc1cc(O)ccc1/C=C/C(=O)CC(=O)/C=C/c1cc(CN(C)C)c(O)c(OC)c1  viability at 20 µM          70.2
4  COc1cc(/C=C/C(=O)CC(=O)/C=C/c2cc(C)c(O)c(C)c2)cc(CN(C)C)c1O  viability at 20 µM          81.9

// below: viability at 20 µM requested for another molecule
// map CCOc1cc(/C=C/C(=O)CC(=O)/C=C/c2cc(CN(C)C)c(O)c(OC)c2)ccc1O to recorded viability at 20 µM (system: PC 12 cell lines)
89.7

###

# System: H2O2-stimulated PC 12 cell lines
# test: Protection against H2O2-induced oxidative damage (CCK-8)
# Format: cell-based, rat
# testParameters: Dose 5 μM; H2O2-induced oxidative damage, PC 12; H2O2 group 49.69 ± 1.37, control 100; in % (unit assumed)
reportedProperty: Cell viability
Reply: number alone, nothing else.

In [3]: df
Out[3]:
                               linenotation                   systemundertest  readoutvalue
0  COc1cc(/C=C/C(=O)CC(=O)/C=C/c2cc(C)c(O)cc2C)cc(CN(C)C)c1O  H2O2-stimulated PC 12 cell lines         60.69
1  COc1cc(/C=C/C(=O)CC(=O)/C=C/c2ccc(OC)c(OC)c2OC)cc(CN(C)C)c1O  H2O2-stimulated PC 12 cell lines         60.05
2  COc1cc(/C=C/C(=O)CC(=O)/C=C/c2ccc(O)cc2C)cc(CN(C)C)c1O  H2O2-stimulated PC 12 cell lines         61.60

GET /values?readout=Cell viability&item= COc1cc(/C=C/C(=O)CC(=O)/C=C/c2c(OC)cc(O)cc2OC)cc(CN(C)C)c1O
59.32

Give the measured Cell viability of COc1cc(/C=C/C(=O)CC(=O)/C=C/c2cc(CN(C)C)c(O)c(OC)c2)ccc1O .
60.18

###

# Tested on: PC 12 cell lines
# test: Radiation protection in vitro (CCK-8)
# Format: cell-based, rat
# testParameters: Dose 5 μM; radiation 8.0 Gy, PC 12; radiation group 50.22 ± 1.08; in % (unit assumed)
// values below are reported Cell viability
Output: the number by itself.

Known results for molecules:
                                   molecule   systemundertest  readoutvalue
0  COc1cc(/C=C/C(=O)CC(=O)/C=C/c2ccc(O)c(Cl)c2)cc(CN(C)C)c1O [Compound 7]  PC 12 cell lines         61.54
1  COc1cc(/C=C/C(=O)CC(=O)/C=C/c2c(OC)cc(O)cc2OC)cc(CN(C)C)c1O [Compound 14a]  PC 12 cell lines         64.83

Then this molecule:
Would you mind telling me what Cell viability value was observed for COc1cc(/C=C/C(=O)CC(=O)/C=C/c2cc(OC)c(O)c(OC)c2)cc(CN(C)C)c1O [Compound 2] ?
50.96

###

Item-by-item account of Cell viability
# Test system: H2O2-stimulated PC 12 cell lines
# test: Protection against H2O2-induced oxidative damage (CCK-8)
# Type: cell-based, rat
# testParameters: Dose 10 μM; H2O2-induced oxidative damage, PC 12; H2O2 group 49.69 ± 1.37, control 100; in % (unit assumed)
Form: value (number only, do not type unit).

>>> print(df.to_string())
                               linenotation                   systemundertest  readoutvalue
0  COc1cc(/C=C/C(=O)CC(=O)/C=C/c2ccc(O)c(Cl)c2)cc(CN(C)C)c1O  H2O2-stimulated PC 12 cell lines         62.07

Record lookup: for H2O2-stimulated PC 12 cell lines, what Cell viability belongs to COc1cc(/C=C/C(=O)CC(=O)/C=C/c2cc(C)c(O)cc2C)cc(CN(C)C)c1O ?
70.31

What value of Cell viability on H2O2-stimulated PC 12 cell lines does COc1ccc(/C=C/C(=O)CC(=O)/C=C/c2cc(CN(C)C)c(O)c(OC)c2)cc1O have?
72.52

Could you share what Cell viability was measured for COc1cc(/C=C/C(=O)CC(=O)/C=C/c2c(C)cc(O)cc2C)cc(CN(C)C)c1O , tested on H2O2-stimulated PC 12 cell lines?
69.55

Write down the reported Cell viability of CCOc1cc(/C=C/C(=O)CC(=O)/C=C/c2cc(CN(C)C)c(O)c(OC)c2)ccc1O , test system: H2O2-stimulated PC 12 cell lines.
80.18

H2O2-stimulated PC 12 cell lines / Cell viability / COc1cc(/C=C/C(=O)CC(=O)/C=C/c2cc(CN(C)C)c(O)c(OC)c2)ccc1O : value?
71.98
